FYI, the data here is from paper PMC7961380.

assay summary: Metabolic stability, pooled human cryopreserved hepatocyte incubations
assay setup: human, hepatocytes, T1/2 (min), pHHeps 0.25 million cells mL^−1, 0.5 µM, 37 °C, n ≥ 3 ± SD
This listing pairs compounds with measured half-life at 0.5 µM.

# compound, half-life at 0.5 µM, min
measured = [
    ("COC(=O)[C@H](NC(=O)c1nn(Cc2ccc(F)cc2)c2ccccc12)C(C)(C)C [(R)-MDMB-FUBINACA (6)]", 32),
    ("C=CCCCn1cc(C(=O)N[C@H](C(=O)OC)C(C)(C)C)c2ccccc21 [(S)-MDMB-4en-PICA (12)]", 37),
    ("C=CCCCn1nc(C(=O)N[C@H](C(=O)OC)C(C)(C)C)c2ccccc21 [(S)-MDMB-4en-PINACA (5)]", 12),
    ("COC(=O)[C@@H](NC(=O)c1cn(CCCCCF)c2ccccc12)C(C)(C)C [(S)-5F-MDMB-PICA (3)]", 38),
    ("CC(C)[C@H](NC(=O)c1nn(Cc2ccc(F)cc2)c2ccccc12)C(N)=O [(S)-AB-FUBINACA (8)]", 76),
    ("COC(=O)[C@@H](NC(=O)c1cn(CC2CCCCC2)c2ccccc12)C(C)C [(S)-AMB-CHMICA (9)]", 7.6),
]

* * *

assay summary: Metabolic stability, pooled human liver microsome incubations
assay setup: human, microsomes, pH 7.4, T1/2 (min), pHLM 0.5 mg mL^−1, 0.5 µM, NADPH, 37 °C, n ≥ 3 ± SD
This listing pairs molecules with measured half-life at 0.5 µM.

# molecule, half-life at 0.5 µM
data = [
    ("COC(=O)[C@@H](NC(=O)c1nn(CCCCF)c2ccccc12)C(C)(C)C [(S)-4F-MDMB-BINACA (4)]", "9.9 min"),
    ("C=CCCCn1nc(C(=O)N[C@H](C(=O)OC)C(C)(C)C)c2ccccc21 [(S)-MDMB-4en-PINACA (5)]", "6.3 min"),
    ("COC(=O)[C@@H](NC(=O)c1cn(CCCCCF)c2ccccc12)C(C)(C)C [(S)-5F-MDMB-PICA (3)]", "9 min"),
    ("CC(C)[C@H](NC(=O)c1nn(Cc2ccc(F)cc2)c2ccccc12)C(N)=O [(S)-AB-FUBINACA (8)]", "118 min"),
    ("C=CCCCn1cc(C(=O)N[C@H](C(=O)OC)C(C)C)c2ccccc21 [(S)-AMB-4en-PICA (7)]", "6 min"),
    ("C=CCCCn1cc(C(=O)N[C@@H](C(=O)OC)C(C)C)c2ccccc21 [(R)-AMB-4en-PICA (7)]", "4.1 min"),
    ("COC(=O)[C@@H](NC(=O)c1nn(Cc2ccc(F)cc2)c2ccccc12)C(C)C [(S)-AMB-FUBINACA (1)]", "0.6 min"),
    ("C=CCCCn1cc(C(=O)N[C@H](C(=O)OC)C(C)(C)C)c2ccccc21 [(S)-MDMB-4en-PICA (12)]", "8.5 min"),
    ("COC(=O)[C@H](NC(=O)c1nn(Cc2ccc(F)cc2)c2ccccc12)C(C)(C)C [(R)-MDMB-FUBINACA (6)]", "20 min"),
    ("COC(=O)[C@@H](NC(=O)c1nn(Cc2ccc(F)cc2)c2ccccc12)C(C)(C)C [(S)-MDMB-FUBINACA (6)]", "11 min"),
    ("COC(=O)[C@@H](NC(=O)c1nn(CCCCCF)c2ccccc12)C(C)(C)C [(S)-5F-MDMB-PINACA (2)]", "6.7 min"),
    ("C=CCCCn1nc(C(=O)N[C@@H](C(=O)OC)C(C)(C)C)c2ccccc21 [(R)-MDMB-4en-PINACA (5)]", "5.5 min"),
    ("COC(=O)[C@@H](NC(=O)c1nn(CCCCCF)c2ccccc12)C(C)C [(S)-5F-AMB-PINACA (10)]", "0.9 min"),
    ("COC(=O)[C@@H](NC(=O)c1cn(CC2CCCCC2)c2ccccc12)C(C)C [(S)-AMB-CHMICA (9)]", "4.1 min"),
    ("CC(C)[C@H](NC(=O)c1nn(CC2CCCCC2)c2ccccc12)C(N)=O [(S)-AB-[…] (11)]", "27 min"),
]
